- Procedure summary: Stat Signaling Pathway (AID 446);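 further: ME-180 cervical cancer cells given 40 pM IL-6 alongside compound; SIE-controlled beta-lactamase reporter measured as 460/530 nm FRET emission ratio; on the % scale 0 is the no-effect control and ±100 the full control effect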
- Condition details: ME-180 (cervical carcinoma) SIE beta-lactamase reporter, IL-6 stimulated, 5 h; at 17.2 µM (top of the series) unless noted
Results filed as inconclusive are left out. Calls of active or inactive are those of the source. The call rests on the fitted dose curve; in most records, active means well fitted curve in either direction with a large enough effect (not every such curve was filed as active); inconclusive means small, poorly fitted or top-dose-only effect, or another doubt; inactive means flat fitted curve, though single readings scatter.
Form field: activity, negative = inhibition (one value per entry).

# Compound, activity, negative = inhibition
data = [
    ("Cc1c(C)n(C(=O)CSc2nccn2C)c2ccccc12", "0.828% (inactive)"),
    ("C=C(C)Cn1c(-c2ccc(OC)cc2)nc2ccccc21", "5.37% (inactive)"),
    ("COC(=O)c1ccc(Cn2cnc3c(sc4nc(N5CCOCC5)c5c(c43)CCCC5)c2=O)o1", "-11.4% (inactive)"),
    ("CCOC(=O)c1c(C)[nH]sc1=S", "-4.25% (inactive)"),
    ("CC(O)c1n(C)c(Cl)c[n+]1C (configuration not stated)", "-4.96% (inactive)"),
    ("CC(CN1CCN(C)CC1)OC(=O)c1ccc(Cl)cc1Cl (configuration not stated)", "-1.03% (inactive)"),
    ("COc1cc(=O)[nH]c(=O)n1CC(=O)c1ccccc1", "5.97% (inactive)"),
    ("COc1ccc(Nc2nnc(C)c3ccccc23)cc1C(N)=O", "-9.16% (inactive)"),
    ("COc1cc(C)cc2c(-c3c(O)cc(O)c4c3C[C@H](C)N[C@@H]4C)cc(-c3cc(-c4c(O)cc(O)c5c4C[C@H](C)N[C@@H]5C)c4cc(C)cc(OC)c4c3O)c(O)c12", "5.82% [at 7.69 µM] (inactive)"),
    ("O=C(O)C[C@@H]1CCCc2ccccc2[C@H]1O", "-11.9% [at 38 µM] (inactive)"),
    ("O=C1CCC(=O)N1CN(C(=O)c1ccco1)c1ccc(Cl)c(Cl)c1", "11.1% (inactive)"),
    ("COc1ccccc1-n1c(N)c(C(=O)NCC2CCCO2)c2nc3ccccc3nc21 (configuration not stated)", "-0.0521% (inactive)"),
    ("CCCC1C(c2ccc(OC)cc2)C(C#N)(C#N)C2(C#N)CC1(N)NC2=O (configuration not stated)", "-5.79% (inactive)"),
    ("O=P(O)(c1ccccc1)c1ccccc1O", "8.28% (inactive)"),
    ("COc1ccc(/C(O)=C2\\C(=O)C(=O)N(c3cc(C)on3)C2c2cccc(OC)c2OC)cc1C (configuration not stated)", "-17.9% (inactive)"),
    ("Cc1ccc(S(=O)(=O)NC(=O)NCc2ccc3c(c2)OCO3)cc1", "0.559% (inactive)"),
    ("O=C1C(=O)N(CCCn2ccnc2)C(c2ccccn2)/C1=C(/O)c1ccccc1 (configuration not stated)", "-2.92% (inactive)"),
    ("c1ccc(OCc2nn3c(-c4cccnc4)nnc3s2)cc1", "-4.47% (inactive)"),
    ("Cc1ccc(NC(=O)Cn2nc(C)c3ccccc3c2=O)cc1", "6.34% (inactive)"),
    ("N#CC12CCCCC1CC1CCCCC1(C#N)N2Cc1ccccn1 (configuration not stated)", "19.1% (inactive)"),
    ("COc1ccccc1NC(=O)C1=C(C)NC(SCC(=O)c2ccc(C)cc2)=C(C#N)C1c1ccco1 (configuration not stated)", "-6.63% (inactive)"),
    ("O=C1C2ON(c3ccccc3)C(c3ccncc3)C2C(=O)N1c1ccc(Br)cc1 (configuration not stated)", "-10.2% (inactive)"),
]
